Experimental System: human liver cathepsin B (Homo sapiens, UniProt P07858)
pIC50: −log10 of the molar value.
Measured Property: pIC50

Chemical String	Experimental System	Reported Measurement
C=C[C@@H]1C[C@]1(NC(=O)[C@@H]1C[C@@H](OC(=O)N2Cc3cccc(F)c3C2)CN1C(=O)[C@@H](OC(=O)NC(C)(C)C)C(C)(C)C)C(=O)NS(=O)(=O)C1CC1	human liver cathepsin B (Homo sapiens, UniProt P07858)	< 4.00

---

Experimental System: HCV NS3/4A protease complex (BMS strain) (UniProt P27958)
Construct: other: HCV NS3/4A enzyme assay; said of H77 and J4L6S; fused on or other part: Three-lysine solubilising tail at the NS4A C-terminus and a His tag from pET21b (Ni-NTA purification), for the H77 and J4L6S constructs
Sequence (P27958 1027-1657, one chain of several): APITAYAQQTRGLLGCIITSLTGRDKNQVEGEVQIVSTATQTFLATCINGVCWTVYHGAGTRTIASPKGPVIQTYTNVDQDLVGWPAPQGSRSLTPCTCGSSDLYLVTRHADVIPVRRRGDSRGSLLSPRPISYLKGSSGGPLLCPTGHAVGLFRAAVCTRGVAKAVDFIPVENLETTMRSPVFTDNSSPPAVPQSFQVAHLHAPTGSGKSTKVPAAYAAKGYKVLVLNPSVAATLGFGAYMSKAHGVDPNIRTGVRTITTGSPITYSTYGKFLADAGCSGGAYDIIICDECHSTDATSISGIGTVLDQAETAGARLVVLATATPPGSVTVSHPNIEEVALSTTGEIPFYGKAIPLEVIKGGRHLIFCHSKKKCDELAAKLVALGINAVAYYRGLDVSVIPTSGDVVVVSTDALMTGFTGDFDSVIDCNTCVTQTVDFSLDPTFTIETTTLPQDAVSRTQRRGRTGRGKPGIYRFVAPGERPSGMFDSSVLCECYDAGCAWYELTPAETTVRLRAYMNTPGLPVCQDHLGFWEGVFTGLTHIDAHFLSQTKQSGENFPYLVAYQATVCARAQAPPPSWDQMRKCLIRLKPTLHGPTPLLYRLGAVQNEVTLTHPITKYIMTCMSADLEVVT
Protocol Notes: FRET peptide assay to monitor HCV NS3/4A proteolytic activity, BMS strain
Assay Conditions: read-out: IC50 Range; HCV NS3/4A enzyme assay; Table 1
pIC50: −log10 of the molar value.
Measured pIC50 by item

Molecule	pIC50
C=C[C@@H]1C[C@]1(NC(=O)[C@@H]1C[C@@H](Oc2cc(-c3ccccc3)nc3cc(OC)ccc23)CN1C(=O)[C@@H](O)C1CCCCC1)C(=O)NS(=O)(=O)C1CC1	> 7.00
C=C[C@@H]1C[C@]1(NC(=O)[C@@H]1C[C@@H](Oc2nccc3cc(OC)ccc23)CN1C(=O)[C@@H](O)C(C)C)C(=O)NS(=O)(=O)C1CC1 [Example 50Compound 50]	6.00 to 7.00
CCC1C[C@]1(NC(=O)[C@@H]1C[C@@H](Oc2cc(-c3ccccc3)nc3cc(OC)ccc23)CN1C(=O)C1(O)CC1)C(=O)NS(=O)(=O)C1CC1 (stereo partly drawn)	6.00 to 7.00

---

Entries and their measured EC50 follow.
Test system: HCV replicon in HUH-7 cells
Protocol Notes: HCV replicon FRET assay
Type: cell-based, Hepatitis C virus (strain 1b)
Assay Conditions: Hepatitis C virus, Huh-7, read-out: EC50 Range, HCV replicon cell assay; Table 1

Compound	Experimental System	EC50
CCC1C[C@]1(NC(=O)[C@@H]1C[C@@H](Oc2cc(-c3ccccc3)nc3cc(OC)ccc23)CN1C(=O)[C@@H](O)CC(C)C)C(=O)NS(=O)(=O)C1CC1 (stereo partly shown)	HCV replicon in HUH-7 cells	500 to 5000 nM
C=C[C@@H]1C[C@]1(NC(=O)[C@@H]1C[C@@H](Oc2nccc3cc(OC)ccc23)CN1C(=O)[C@@H](OC(=O)NC1(C(F)(F)F)CC1)C(C)C)C(=O)NS(=O)(=O)C1CC1	HCV replicon in HUH-7 cells	500 to 5000 nM
CCC1C[C@]1(NC(=O)[C@@H]1C[C@@H](Oc2cc(-c3ccccc3)nc3cc(OC)ccc23)CN1C(=O)C(O)C(C)(C)C)C(=O)NS(=O)(=O)C1CC1 (stereo partly shown)	HCV replicon in HUH-7 cells	500 to 5000 nM
C=C[C@@H]1C[C@]1(NC(=O)[C@@H]1C[C@@H](Oc2cc(-c3ccccc3)nc3cc(OC)ccc23)CN1C(=O)C(O)c1ccccc1)C(=O)NS(=O)(=O)C1CC1 (stereo partly shown)	HCV replicon in HUH-7 cells	> 5000 nM
C=C[C@@H]1C[C@]1(NC(=O)[C@@H]1C[C@@H](Oc2cc(-c3ccccc3)nc3cc(OC)ccc23)CN1C(=O)[C@@H](OC(=O)NC1CCCC1)C(C)(C)C)C(=O)NS(=O)(=O)C1CC1	HCV replicon in HUH-7 cells	< 500 nM
C=C[C@@H]1C[C@]1(NC(=O)[C@@H]1C[C@@H](Oc2cc(-c3ccccc3)nc3cc(OC)ccc23)CN1C(=O)[C@@H](OC(=O)NC(C)C)C(C)(C)C)C(=O)NS(=O)(=O)C1CC1	HCV replicon in HUH-7 cells	< 500 nM
C=C[C@@H]1C[C@]1(NC(=O)[C@@H]1C[C@@H](Oc2cc(-c3cccs3)cc(-c3ccccc3)n2)CN1C(=O)[C@@H](OC(=O)NC(C)(C)C)C(C)(C)C)C(=O)NS(=O)(=O)C1CC1	HCV replicon in HUH-7 cells	500 to 5000 nM
C=C[C@@H]1C[C@]1(NC(=O)[C@@H]1C[C@@H](Oc2nccc3ccccc23)CN1C(=O)[C@@H](O)C(C)(C)C)C(=O)NS(=O)(=O)C1CC1	HCV replicon in HUH-7 cells	500 to 5000 nM
C=C[C@@H]1C[C@]1(NC(=O)C1CC(Oc2cc(-c3ccccc3)nc3cc(OC)ccc23)CN1C(=O)[C@@H](O)C(C)(C)C)C(=O)NS(=O)(=O)C1CC1 (stereo partly shown)	HCV replicon in HUH-7 cells	500 to 5000 nM
C=C[C@@H]1C[C@]1(NC(=O)[C@@H]1C[C@@H](Oc2cc(-c3ccccc3)nc3cc(OC)ccc23)CN1C(=O)C(O)CC(C)C)C(=O)NS(=O)(=O)C1CC1 (stereo partly shown)	HCV replicon in HUH-7 cells	500 to 5000 nM

---

Experimental System: HCV NS3/4A protease complex (BMS strain) (UniProt P27958, species not given/STRAIN_BMS)
Construct: other: BMS strain; said of H77 and J4L6S; These are given only for the H77 and J4L6S constructs
Sequence (P27958 1027-1657, change not shown, one chain of several): as the sequence (P27958 1027-1657, one chain of several) above
Protocol Notes: FRET peptide assay to monitor HCV NS3/4A proteolytic activity, BMS strain
Assay Conditions: read-out: IC50 against the NS3/4A BMS strain in the enzyme assay; BMS strain
pIC50: −log10 of the molar value.

Chemical String	Experimental System	pIC50
C=C[C@@H]1C[C@]1(NC(=O)[C@@H]1C[C@@H](OC(=O)N2Cc3cccc(F)c3C2)CN1C(=O)[C@@H](OC(=O)NC(C)(C)C)C(C)(C)C)C(=O)NS(=O)(=O)C1CC1	HCV NS3/4A protease complex (BMS strain) (UniProt P27958, species not given/STRAIN_BMS)	7.00

---

Experimental System: HCV NS3/4A protease complex (BMS strain)
Construct: other: HCV NS3/4A enzyme assay; said of H77 and J4L6S; fused on or other part: Three-lysine solubilising tail at the NS4A C-terminus and a His tag from pET21b (Ni-NTA purification), for the H77 and J4L6S constructs
Protocol Notes: FRET peptide assay to monitor HCV NS3/4A proteolytic activity, BMS strain
Assay Conditions: read-out: IC50 Range; HCV NS3/4A enzyme assay; Table 1
pIC50: −log10 of the molar value.
Quick list: pIC50 per entry.
Measured Property: pIC50

Molecule	Experimental System	Measured Property	Reported Measurement
CCC1C[C@]1(NC(=O)[C@@H]1C[C@@H](Oc2cc(-c3ccccc3)nc3cc(OC)ccc23)CN1C(=O)C(O)C(C)(C)C)C(=O)NS(=O)(=O)C1CC1 (stereo partly drawn)	HCV NS3/4A protease complex (BMS strain)	pIC50	> 7.00
C=C[C@@H]1C[C@]1(NC(=O)[C@@H]1C[C@@H](Oc2nccc3ccccc23)CN1C(=O)[C@@H](OC(=O)Nc1ccccc1C(C)C)C(C)(C)C)C(=O)NS(=O)(=O)C1CC1	HCV NS3/4A protease complex (BMS strain)	pIC50	6.00 to 7.00
C=C[C@@H]1C[C@]1(NC(=O)[C@@H]1CC(Oc2cc(-c3ccccc3)nc3cc(OC)ccc23)CN1C(=O)[C@@H](O)C(C)(C)C)C(=O)NS(=O)(=O)C1(CC2CC2)CC1 (stereo partly drawn)	HCV NS3/4A protease complex (BMS strain)	pIC50	> 7.00

---

compounds and their reported IC50
Experimental System: HCV NS3/4A protease complex (BMS strain) (UniProt P27958)
Construct: other: HCV NS3/4A enzyme assay; said of H77 and J4L6S; fused on or other part: Three-lysine solubilising tail at the NS4A C-terminus and a His tag from pET21b (Ni-NTA purification), for the H77 and J4L6S constructs
Protocol Notes: FRET peptide assay to monitor HCV NS3/4A proteolytic activity, BMS strain
Assay Conditions: read-out: IC50 Range; HCV NS3/4A enzyme assay; Table 1

Compound	Experimental System	IC50
C=C[C@@H]1C[C@]1(NC(=O)[C@@H]1C[C@@H](Oc2cc(-c3ccccc3)nc3cc(OC)ccc23)CN1C(=O)C(O)c1ccccc1)C(=O)NS(=O)(=O)C1CC1 (stereo partly shown) [Example 14]	HCV NS3/4A protease complex (BMS strain) (UniProt P27958)	100 to 1000 nM
CCC1C[C@]1(NC(=O)[C@@H]1C[C@@H](Oc2cc(-c3ccccc3)nc3cc(OC)ccc23)CN1C(=O)C(O)C(C)C)C(=O)NS(=O)(=O)C1CC1 (stereo partly shown) [Example 11]	HCV NS3/4A protease complex (BMS strain) (UniProt P27958)	< 100 nM
C=C[C@@H]1C[C@]1(NC(=O)[C@@H]1C[C@@H](Oc2nccc3ccccc23)CN1C(=O)[C@@H](OC(=O)NC(C)C)C(C)(C)C)C(=O)NS(=O)(=O)C1CC1 [Example 26]	HCV NS3/4A protease complex (BMS strain) (UniProt P27958)	100 to 1000 nM
C=C[C@@H]1C[C@]1(NC(=O)[C@@H]1C[C@@H](Oc2nccc3cc(OC)ccc23)CN1C(=O)[C@@H](OC(=O)NC1(C(F)(F)F)CC1)C(C)C)C(=O)NS(=O)(=O)C1CC1 [Example 54Compound 54]	HCV NS3/4A protease complex (BMS strain) (UniProt P27958)	100 to 1000 nM
C=C[C@@H]1C[C@]1(NC(=O)[C@@H]1C[C@@H](Oc2nc(-c3ccc(OC(F)(F)F)cc3)cc3cc(OC)ccc23)CN1C(=O)[C@@H](OC(=O)NC(C)(C)C)C(C)(C)C)C(=O)NS(=O)(=O)C1CC1 [Example 23]	HCV NS3/4A protease complex (BMS strain) (UniProt P27958)	< 100 nM
C=C[C@@H]1C[C@]1(NC(=O)[C@@H]1C[C@@H](Oc2cc(-c3ccccc3)nc3cc(OC)ccc23)CN1C(=O)[C@@H](O)CC(C)C)C(=O)NS(=O)(=O)C1CC1 [Example 4,Compound 6]	HCV NS3/4A protease complex (BMS strain) (UniProt P27958)	< 100 nM
C=C[C@@H]1C[C@]1(NC(=O)[C@@H]1C[C@@H](Oc2cc(-c3ccccc3)nc3cc(OC)ccc23)CN1C(=O)[C@H](O)c1ccccc1)C(=O)NS(=O)(=O)C1CC1 [Example 18]	HCV NS3/4A protease complex (BMS strain) (UniProt P27958)	100 to 1000 nM
C=C[C@@H]1C[C@]1(NC(=O)C1CC(Oc2cc(-c3ccccc3)nc3cc(OC)ccc23)CN1C(=O)[C@@H](O)C(C)(C)C)C(=O)NS(=O)(=O)C1CC1 (stereo partly shown) [Example 4,Compound 8]	HCV NS3/4A protease complex (BMS strain) (UniProt P27958)	< 100 nM
C=C[C@@H]1C[C@]1(NC(=O)[C@@H]1C[C@@H](Oc2nccc3ccccc23)CN1C(=O)[C@@H](OC(=O)NC(C)(C)C)C(C)(C)C)C(=O)NS(=O)(=O)C1CC1 [Example 24]	HCV NS3/4A protease complex (BMS strain) (UniProt P27958)	100 to 1000 nM
C=C[C@@H]1C[C@]1(NC(=O)[C@@H]1C[C@@H](Oc2cc(-c3ccccc3)nc3cc(OC)ccc23)CN1C(=O)[C@@H](OC(=O)NC1CCCC1)C(C)(C)C)C(=O)NS(=O)(=O)C1CC1 [Example 5,Compound 3]	HCV NS3/4A protease complex (BMS strain) (UniProt P27958)	< 100 nM
